Reported pKi values are given for each entry in this list.
Target: BRD4 BD2 protein (Homo sapiens (Human))
Test: Fluorescence polarization binding affinity (Ki) with BRD4 BD2 protein
Conditions: fluorescence polarization; Ki calculated from IC50
Kindly note that pKi refers to -log10 of the concentration in mol/L and answer with the value alone.

Cc1nnn2c1-c1ccc(C3=CCNCC3)cc1C(Nc1cccc(O)c1)CC2 (centres unmarked) [LC97, 2,2,2-trifluoroacetate] :: 7.39
Cc1nnn2c1-c1ccc(C3=CCN(C4CCCC4)CC3)cc1C(Nc1cccc(Cl)c1F)CC2 (centres unmarked) :: 7.49
COc1ccc(NC2CCc3onc(C)c3-c3ccc(OC)cc32)cc1 (centres unmarked) :: 6.98
Cc1nnn2c1-c1ccc(C3=CCNCC3)cc1C(Nc1cccc(OCCO)c1)CC2 (centres unmarked) [LC56, 2,2,2-trifluoroacetate] :: 7.15
Cc1nnn2c1-c1ccc(-c3cnn(C)c3)cc1C(Nc1ccccc1CC(=O)O)CC2 (centres unmarked) :: 7.84
Cc1nnn2c1-c1ccc(-c3cnn(C)c3)cc1C(Nc1ccc3[nH]ccc3c1)CC2 (centres unmarked) :: 8.04

Query block: What value of pKi has been reported for the following compound? Cc1nnn2c1-c1ccc(C3=CCN(C4CCCC4)CC3)cc1C(Nc1cccc(Cl)c1)CC2 (centres unmarked) [BH107, 2,2,2-trifluoroacetate]
Result block: 7.75

Query block: For the compound CCC(=O)N1CC=C(c2ccc3c(c2)C(Nc2ccc(Cl)cc2)CCn2nnc(C)c2-3)CC1 (centres unmarked) , what pKi is on record?
Result block: 8.21

====

Quick reference for pKi among some compounds
Molecular target: BRD4 BD1 protein (Homo sapiens (Human))
Assay: Fluorescence polarization binding affinity (Ki) with BRD4 BD1 protein
Details: fluorescence polarization; Ki calculated from IC50
Would you please state pKi, meaning minus log10 of the concentration in mol/L, as a bare number?

Record excerpt, results attached:
CCN1CC=C(c2ccc3c(c2)C(Nc2ccc(Cl)cc2)CCn2nnc(C)c2-3)CC1 (centres unmarked) [LD23, 2,2,2-trifluoroacetate] :: 6.48
Cc1nnn2c1-c1ccc(C3=CCN(C)CC3)cc1C(Nc1ccc(CO)cc1)CC2 (centres unmarked) [RD41] :: 5.81
Cc1nnn2c1-c1ccc(C3=CCNCC3)cc1C(Nc1ccccc1O)CC2 (centres unmarked) [LC127, 2,2,2-trifluoroacetate] :: 6.10
Cc1nnn2c1-c1ccc(-c3cnn(C)c3)cc1C(Nc1cccc3cccnc13)CC2 (centres unmarked) [LB91] :: 7.09
Cc1nnn2c1-c1ccc(-c3cnn(C)c3)cc1C(Nc1cccc(CC#N)c1)CC2 (centres unmarked) [LC20] :: 7.22
COc1cccc(NC2CCn3nnc(C)c3-c3ccc(C4=CCN(C(C)=O)CC4)cc32)c1 (centres unmarked) [BH27] :: 7.15
Cc1nnn2c1-c1ccc(-c3cnn(C)c3)cc1C(Nc1ccc(OCCO)cc1)CC2 (centres unmarked) [LB68] :: 7.16
Cc1nnn2c1-c1ccc(-c3cnn(C)c3)cc1C(Nc1ccc(F)cc1F)CC2 (centres unmarked) [LC01] :: 7.25
Cc1nnn2c1-c1ccc(-c3cnn(C)c3)cc1C(Nc1ccccc1OCCO)CC2 (centres unmarked) [LB90] :: 6.87
Cc1nnn2c1-c1ccc(-c3cnn(C)c3)cc1C(Nc1ccc(C(O)(C(F)(F)F)C(F)(F)F)cc1)CC2 (centres unmarked) [LB83] :: 6.74

Query block: Find the recorded pKi belonging to Cc1nnn2c1-c1ccc(C3=CCNCC3)cc1C(Nc1ccc3[nH]ccc3c1)CC2 (centres unmarked) [WA82, 2,2,2-trifluoroacetate] and report it.
Result block: 6.36

Query block: Consider the compound shown here: Cc1nnn2c1-c1ccc(-c3cnn(C)c3)cc1C(Nc1cccc(C#N)c1)CC2 (centres unmarked) [LC07] What is its recorded pKi?
Result block: 6.87

Query block: Data request, read-out pKi, for Cc1nnn2c1-c1ccc(C3=CCN(C4CCCCC4)CC3)cc1C(Nc1cc(Cl)ccc1F)CC2 (centres unmarked) [BH187, 2,2,2-trifluoroacetate]
Result block: 5.76

Query block: What value of pKi has been recorded for this entry: CNC(=O)Cc1cccc(NC2CCn3nnc(C)c3-c3ccc(-c4cnn(C)c4)cc32)c1 (centres unmarked) [LC10]
Result block: 7.16

Query block: What value of pKi has been reported for the following compound? Cc1nnn2c1-c1ccc(-c3cnn(C)c3)cc1C(Nc1ccccc1N(C)C)CC2 (centres unmarked) [LB01]
Result block: 7.02

Query block: Quick one: pKi of Cc1nnn2c1-c1ccc(-c3cnn(C)c3)cc1C(Nc1ccccc1CN(C)C)CC2 (centres unmarked) [LC29] ?
Result block: 7.71

Query block: # lookup: pKi of Cc1nnn2c1-c1ccc(C3=CCNCC3)cc1C(Nc1ccc3cc[nH]c3c1)CC2 (centres unmarked) [WA83, 2,2,2-trifluoroacetate]
Result block: 6.37
